All values here come from the NIST ThermoML archive (doi:10.1021/je400134d).

condition notes: 293.15 K; 101.33 kPa; Liquid; Vibrating tube method
Numbers after ± are expanded uncertainties.
Recorded mass density, one value per entry.
Express your answer as a number followed by its unit.

Known results for molecules:
INSERT INTO assay_data (chemical_smiles, quantity_kind, recorded_measurement) VALUES
  ('CCCCCCC', 'mass density', '683.845 ± 0.18 kg/m3'),
  ('CNc1ccccc1', 'mass density', '986.444 ± 0.82 kg/m3'),
  ('C1CCCCC1', 'mass density', '778.706 ± 0.15 kg/m3');

Sample Cc1ccccc1 — what was its mass density?
866.98 ± 0.1 kg/m3

* * *

Recorded speed of sound, one value per entry.
condition notes: 293.15 K; 101.33 kPa; Liquid; Pulse-echo method
Field format: number, assumed m/s, no unit text.

INSERT INTO results (molecule, uom, recorded_measurement) VALUES
  ('Cc1ccccc1 [toluene]', 'm/s', 1325.8),
  ('C1CCCCC1 [cyclohexane]', 'm/s', 1278),
  ('CNc1ccccc1 [N-methylaniline]', 'm/s', 1582.7);

Here is another molecule to look at.
Sample CCCCCCC [heptane] — what was its speed of sound?
1150.9

* * *

condition notes: 303.15 K; 101.33 kPa; Liquid; Vibrating tube method
quantity kind: mass density (kg/m3)
Field format: number, assumed kg/m3, no unit text.

Known results for compounds:
INSERT INTO results (chemical_smiles, quantity_kind, uom, recorded_measurement) VALUES
  ('Cc1ccccc1', 'mass density', 'kg/m3', 857.725),
  ('C1CCCCC1', 'mass density', 'kg/m3', 769.297),
  ('CNc1ccccc1', 'mass density', 'kg/m3', 978.541);

Here is another compound to look at.
Sample CCCCCCC — what was its mass density?
675.532

* * *

condition notes: 298.15 K; 101.33 kPa; Liquid; Vibrating tube method
Numbers after ± are expanded uncertainties.
quantity kind: mass density
Express your answer as a number followed by its unit.

INSERT INTO results (compound, quantity_kind, recorded_measurement) VALUES
  ('Cc1ccccc1 [toluene]', 'mass density', '862.295 ± 0.11 kg/m3'),
  ('C1CCCCC1 [cyclohexane]', 'mass density', '774.018 ± 0.16 kg/m3'),
  ('CCCCCCC [heptane]', 'mass density', '679.603 ± 0.18 kg/m3');

Here is another compound to look at.
Sample CNc1ccccc1 [N-methylaniline] — what was its mass density?
982.487 ± 0.82 kg/m3

* * *

condition notes: 298.15 K; 101.33 kPa; Liquid; Pulse-echo method
± gives the expanded uncertainty stated by the source.
quantity kind: speed of sound

Known results for compounds:
INSERT INTO results (compound, recorded_measurement) VALUES
  ('CCCCCCC [heptane]', '1129.6 ± 0.9 m/s'),
  ('C1CCCCC1 [cyclohexane]', '1253.6 ± 0.9 m/s'),
  ('CNc1ccccc1 [N-methylaniline]', '1564.7 ± 2.2 m/s');

Sample Cc1ccccc1 [toluene] — what was its speed of sound?
1304.4 ± 0.8 m/s

* * *

condition notes: 303.15 K; 101.33 kPa; Liquid; Pulse-echo method
Recorded speed of sound, one value per entry.
Field format: number, assumed m/s, no unit text.

Known results for compounds:
INSERT INTO results (chemical_smiles, uom, recorded_measurement) VALUES
  ('CNc1ccccc1', 'm/s', 1545.8),
  ('Cc1ccccc1', 'm/s', 1283.7),
  ('CCCCCCC', 'm/s', 1111.2);

Sample C1CCCCC1 — what was its speed of sound?
1229.9
